- assay_text: Rat PK study: concentration of compounds in large intestine tissue and plasma
- Type: in vivo
- details: male, plasma, 3 mg/kg oral, non-fasted SD rats, 8 hours, read-out: Plasma: plasma test compound concentration after 8 hours
// concentration at 8 h lookup, one value per entry

Observe how each entry below is paired with its result.
{"columns": ["smiles_representation", "parameter_measured", "result"],
 "data": [
  ["O=C(O)c1cnn(-c2nc3ncn(Cc4ccc(O)cc4)c3c(=O)[nH]2)c1", "concentration at 8 h", "< 1 ng/mL"],
  ["O=C(O)c1cnn(-c2nc3c(ncn3Cc3ccc(O)cc3)c(=O)[nH]2)c1", "concentration at 8 h", "< 1 ng/mL"],
  ["O=C(O)c1cnn(-c2nc3ncn(COCc4ccccc4)c3c(=O)[nH]2)c1", "concentration at 8 h", "< 1 ng/mL"]
]}

Okay, next one:
Data request: Form field: reported concentration at 8 h of COc1ccc(Cn2cnc3c(=O)[nH]c(-n4cc(C(=O)O)cn4)nc32)cc1
Data returned: < 1 ng/mL

----------
- assay_text: Rat PK study: concentration of compounds in large intestine tissue and plasma
- Assay type: in vivo
- details: male, plasma, 3 mg/kg oral, non-fasted SD rats, read-out: Cmax: maximum plasma concentration
parameter_measured: Cmax (ng/mL)
Entry rule: numbers only, all in ng/mL.

Observe how each entry below is paired with its result.
{"columns": ["molecule", "Cmax / ng/mL"],
 "data": [
  ["O=C(O)c1cnn(-c2nc3ncn(Cc4ccc(O)cc4)c3c(=O)[nH]2)c1 [Example 3]", 6],
  ["CS(=O)(=O)c1ccc(Cn2cnc3nc(-n4cc(C(=O)O)cn4)[nH]c(=O)c32)cc1 [Example 4]", 6],
  ["O=C(O)c1cnn(-c2nc3ncn(COCc4ccccc4)c3c(=O)[nH]2)c1 [Example 2]", 3]
]}

Okay, next one:
Data request: Form field: reported Cmax of COc1ccc(Cn2cnc3nc(-n4cc(C(=O)O)cn4)[nH]c(=O)c32)cc1 [Example 11]
Data returned: 10

Where these numbers come from: patent US12157739B2
